B1: LINE1-full (parent)
chain: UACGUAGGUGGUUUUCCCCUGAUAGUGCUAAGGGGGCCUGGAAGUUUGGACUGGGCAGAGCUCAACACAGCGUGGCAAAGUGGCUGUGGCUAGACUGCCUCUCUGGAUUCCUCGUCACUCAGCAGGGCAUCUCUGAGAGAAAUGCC

variants of: B1; test: self-cleavage, relative activity (ratio to wild type); higher = more cleavage; in vitro, sequencing; the parent is a self-cleaving ribozyme
property-measured: self-cleavage
Give bare numbers.

These solved cases illustrate the format of a correct answer.
A24G A69U: 0.21
G80C U108C: 0
U73C G75U: 0.78
U45C U132A: 1.96
G44A A59G: 0.03

Provide self-cleavage for all items below, preserving their order.
1. U73C U87A
2. A107U A136G
3. U52A C116U
4. C51U A121G
5. A43C G97A
6. A24G A121U
7. A31U U119C
8. G32A G55U

1: 0.31; 2: 1.92; 3: 1.18; 4: 1.85; 5: 0.09; 6: 2.93; 7: 1.62; 8: 0.32

Provide self-cleavage for all items below, preserving their order.
1. A2G U29C
2. U23C G75C
3. U29C C111A
4. C3A A30G
5. U39A G86A

1: 0.81; 2: 1.23; 3: 1.24; 4: 1.39; 5: 0.08

Provide self-cleavage for all items below, preserving their order.
1. U52G A69U
2. U26C U47A
3. A79G U85C
4. U20G A42G

0.1
1.16
0.11
0.67

Data origin, for the record: the RNAGym collection of RNA variant scans (doi:10.7554/elife.90254)
